Measurement Target: cIAP1 BIR3 domain (residues 253-363) (Homo sapiens)
Construct: The recombinant cIAP1 BIR3 domain (residues 253-363); His-tag
Sequence (Q13490 253-363): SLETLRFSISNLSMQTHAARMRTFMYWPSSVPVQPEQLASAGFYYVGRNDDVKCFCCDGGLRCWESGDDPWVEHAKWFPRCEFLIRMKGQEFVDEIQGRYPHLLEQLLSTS
Test Method Notes: Fluorescence polarization competitive binding assay to cIAP1 BIR3
Stated Conditions: FP competitive binding, SM5F or SM-F1 as the tracer
Procedure: In order to test the binding ability of conformationally constrained Smac mimetics to other IAP proteins (cIAP1 and cIAP2) binding assay conditions were developed. The recombinant cIAP1 BIR3 domain (residues 253-363), cIAP2 BIR3 domain (residues 238-349), fused to a His-tag, were used in the binding assays. Competitive binding assays for other IAP proteins are performed similarly as that described for XIAP BIR3. […]
pIC50: −log10 of the molar value.
Assay Endpoint: pIC50

pIC50 measured on CN[C@@H](C)C(=O)N[C@H]1CN(C(=O)Cc2ccc(F)cc2)CC[C@H]2CC[C@@H](c3nc4c(-c5ccccc5)cccc4[nH]3)N2C1=O [SM-1268] = > 7.00

pIC50 measured on CN[C@@H](C)C(=O)N[C@H]1CN(C(=O)CCc2ccc(F)cc2)CC[C@H]2CC[C@@H](c3nc4c(-c5ccccc5)cccc4[nH]3)N2C1=O [SM-1271] = > 7.00

pIC50 measured on CN[C@@H](C)C(=O)N[C@H]1CN(C(=O)CCc2ccccc2)CC[C@H]2CC[C@@H](c3nc4c(-c5ccccc5)cccc4[nH]3)N2C1=O [SM-1270] = > 7.00

pIC50 measured on CN[C@@H](C)C(=O)N[C@H]1CN(C(=O)Cc2ccccc2)CC[C@H]2CC[C@@H](c3nc4c(-c5ccccc5)cccc4[nH]3)N2C1=O [SM-1257] = > 7.00

pIC50 measured on CN[C@@H](C)C(=O)N[C@H]1CN(C(=O)Cc2ccc(F)cc2)CC[C@H]2CC[C@@H](c3nc4c(-c5ccc(F)cc5)cccc4[nH]3)N2C1=O [SM-1307] = > 7.00

pIC50 measured on CN[C@@H](C)C(=O)N[C@H]1CN(C(=O)CC(C)C)CC[C@H]2CC[C@@H](c3nc4c(-c5ccccc5)cccc4[nH]3)N2C1=O [SM-1238] = > 7.00

pIC50 measured on CN[C@@H](C)C(=O)N[C@H]1CN(C(=O)Cc2ccc(F)cc2)CC[C@H]2CC[C@@H](c3nc4c(-c5cccc(F)c5)cccc4[nH]3)N2C1=O [SM-1306] = > 7.00

pIC50 measured on CN[C@@H](C)C(=O)N[C@H]1CCCC[C@H]2CC[C@@H](c3nc4c(-c5ccccc5)cccc4[nH]3)N2C1=O [SM-1237] = > 7.00

pIC50 measured on CN[C@@H](C)C(=O)N[C@H]1CN(C(=O)CC(C)C)CC[C@H]2CC[C@@H](c3nc4c(-c5ccc(F)cc5)cccc4[nH]3)N2C1=O [SM-1316] = > 7.00

pIC50 measured on CN[C@@H](C)C(=O)N[C@H]1CCCC[C@H]2CC[C@@H](c3nc(-c4ccccc4)cs3)N2C1=O [SM-1229] = > 5.70

pIC50 measured on CN[C@@H](C)C(=O)N[C@H]1CN(C(=O)CC(C)C)CC[C@H]2CC[C@@H](c3nc(-c4ccccc4)cs3)N2C1=O [SM-1235] = > 6.00

pIC50 measured on CN[C@@H](C)C(=O)N[C@H]1CN(C(=O)Cc2ccc(F)cc2)CC[C@H]2CC[C@@H](c3nc4c(-c5ccccc5F)cccc4[nH]3)N2C1=O [SM-1308] = > 7.00

pIC50 measured on CN[C@@H](C)C(=O)N[C@H]1CN(C(=O)Cc2ccccc2)CC[C@H]2CC[C@@H](c3nc4c(-c5ccc(F)cc5)cccc4[nH]3)N2C1=O [SM-1317] = > 7.00
